B1: UBN1(92–175) [human] / H3.3/H4 [human | X. laevis] (parent complex)
chain 1: NDEEKERHKVEALARKFEEKYGGKKRRKDRIQDLIDMGYGYDESDSFIDNSEAYDELVPASLTTKYGGFYINSGTLQFRQASES
chain 2: not shown
chain 3: not shown

# Variants of: B1
# Procedure Text: fluorescence polarization competition binding; 10 nM FITC-UBN1(127–148), 6.5 μM H3.3/H4; 20 mM HEPES pH 7.5, 750 mM NaCl, 1 mM TCEP; parent: 1.66e+04 nM
Recorded IC50 values for a group of variants are listed next.

Mutation: chain 1 A53I
IC50 [µM]: 16.3
--
Mutation: chain 1 D36A
IC50 [µM]: 21.1
--
Mutation: chain 1 Y39A
IC50 [µM]: 14.4
--
Mutation: chain 1 Q32A
IC50 [µM]: 13.8
--
Mutation: chain 1 E56A
IC50 [µM]: 22.9
--
Mutation: chain 1 L34A
IC50 [µM]: 15.1
